Known pKd of a selection of binders
Target entity: IFI16HinAB (Homo sapiens, UniProt Q16666-2 159-729)
Sequence (Q16666 other isoform, or with tags, fused parts or gaps): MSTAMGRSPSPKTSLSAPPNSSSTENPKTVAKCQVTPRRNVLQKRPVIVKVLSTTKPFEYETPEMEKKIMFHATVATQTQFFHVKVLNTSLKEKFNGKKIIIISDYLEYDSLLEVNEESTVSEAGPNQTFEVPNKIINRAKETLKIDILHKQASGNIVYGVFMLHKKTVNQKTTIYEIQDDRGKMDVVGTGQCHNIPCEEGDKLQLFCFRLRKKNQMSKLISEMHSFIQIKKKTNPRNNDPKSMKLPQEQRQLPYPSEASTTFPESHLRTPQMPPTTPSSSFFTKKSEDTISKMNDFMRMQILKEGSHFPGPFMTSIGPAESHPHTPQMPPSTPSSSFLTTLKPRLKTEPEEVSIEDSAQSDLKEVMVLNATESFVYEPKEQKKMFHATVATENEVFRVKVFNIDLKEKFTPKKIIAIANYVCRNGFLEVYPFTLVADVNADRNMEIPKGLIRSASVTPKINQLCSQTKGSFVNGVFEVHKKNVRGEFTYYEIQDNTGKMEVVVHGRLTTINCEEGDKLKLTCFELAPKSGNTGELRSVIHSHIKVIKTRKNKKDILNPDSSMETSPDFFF
Assay notes: EMSA; apparent KD <=250 nM; low salt; 160 mM KCl; 60 mM KCl for IFI16HinAB; FAM probe 3-6 nM (FA) or 20 nM (EMSA); binding buffer pH and temperature not in the material
Assay conditions: protein: recombinant; label: FAM
pKd: −log10 of the molar value.

{"columns": ["Binder", "pKd"],
 "data": [
  ["24-bp DNA:RNA hybrid (DNA:RNA) DNA: TAAGACACGATGCGATAAAATCTG RNA: CAGAUUUUAUCGCAUCGUGUCUUA", "> 6.60"],
  ["24-bp dsDNA (dsDNA) DNA 1: TAAGACACGATGCGATAAAATCTG DNA 2: CAGATTTTATCGCATCGTGTCTTA", "> 6.60"]
]}
